B1: Twister Ribozyme (parent)
chain: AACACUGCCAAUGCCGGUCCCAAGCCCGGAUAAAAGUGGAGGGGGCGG

variants of: B1; experiment: self-cleavage, relative activity (ratio to wild type); higher = more cleavage; co-transcriptional
self-cleavage values, listed per item
Please respond with just the number, no unit label.

Worked examples follow.
INSERT INTO results (sequence_record, reported_measurement) VALUES
  ('AUCACUGCCAAUGCGGGUCCCAAGCCCGGAUAAAAGUGGAGGGGGCGG [A2U C15G]', 0.0661),
  ('AACACUGCCAAUGCCGGUCCCGAGCCCGGAUAAAAGUGGACGGGGCGG [A22G G41C]', 0.133),
  ('AACACUGCCAAUGCCGGGCCCAAGCCCGGAUAAAAGUGCAGGGGGCGG [U18G G39C]', 0.0419),
  ('AACACUGCCAAUGACGGUCCCAAGCCCGGAUAAAAGUGGAGGCGGCGG [C14A G43C]', 0.182),
  ('AACACUGCCAAUGCCGGUCCCAAGCCGGGAUAAAAGUGGAGAGGGCGG [C27G G42A]', 0.0529);

Okay, now this variant:
Query string: Look up self-cleavage: AACACUGCCAAUCCCGGUCCCAAGCCCGGAUAAAAGUGGAGGGGCCGG [G13C G45C]
Result string: 0.138
